Molecular target: T1, rat collagen, acid soluble, type I, rat tail (Upstate 08-115) (rat, UniProt P02454 152-1207; P02466 86-1125)
T1 construct: tissue extract, gelled and dried in wells; also called dried rat collagen
T1 sequence (P02454 152-1207, chain 1 of 2): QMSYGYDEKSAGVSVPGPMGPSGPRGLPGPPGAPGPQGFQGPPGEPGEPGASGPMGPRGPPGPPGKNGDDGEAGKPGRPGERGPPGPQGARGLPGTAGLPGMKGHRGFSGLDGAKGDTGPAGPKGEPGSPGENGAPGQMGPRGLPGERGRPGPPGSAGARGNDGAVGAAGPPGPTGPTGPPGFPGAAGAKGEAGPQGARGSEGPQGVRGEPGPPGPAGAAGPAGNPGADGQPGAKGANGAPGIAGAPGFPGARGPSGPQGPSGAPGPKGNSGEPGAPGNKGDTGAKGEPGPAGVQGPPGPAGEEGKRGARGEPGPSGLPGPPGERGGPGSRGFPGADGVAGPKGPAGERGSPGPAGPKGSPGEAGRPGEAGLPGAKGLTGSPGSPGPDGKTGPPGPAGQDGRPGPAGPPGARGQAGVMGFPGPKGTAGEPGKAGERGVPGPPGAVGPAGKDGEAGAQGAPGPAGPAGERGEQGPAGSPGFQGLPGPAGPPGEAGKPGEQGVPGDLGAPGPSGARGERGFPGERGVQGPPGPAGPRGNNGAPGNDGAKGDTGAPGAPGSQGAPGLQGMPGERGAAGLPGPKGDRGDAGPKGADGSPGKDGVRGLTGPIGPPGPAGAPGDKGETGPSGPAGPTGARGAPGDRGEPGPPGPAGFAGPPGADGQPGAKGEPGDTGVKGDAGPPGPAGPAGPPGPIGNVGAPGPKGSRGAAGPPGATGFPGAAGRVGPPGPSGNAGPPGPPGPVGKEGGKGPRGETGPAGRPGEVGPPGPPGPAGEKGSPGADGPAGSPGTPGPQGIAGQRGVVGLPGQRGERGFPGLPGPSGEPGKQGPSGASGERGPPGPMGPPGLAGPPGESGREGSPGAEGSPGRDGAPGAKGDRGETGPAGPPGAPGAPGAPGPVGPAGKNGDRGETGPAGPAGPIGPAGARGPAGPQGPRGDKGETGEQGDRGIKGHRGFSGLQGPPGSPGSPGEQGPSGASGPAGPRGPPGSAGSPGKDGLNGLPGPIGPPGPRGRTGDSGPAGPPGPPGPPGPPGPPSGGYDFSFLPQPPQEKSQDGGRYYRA
T1 sequence (P02466 86-1125, chain 2 of 2): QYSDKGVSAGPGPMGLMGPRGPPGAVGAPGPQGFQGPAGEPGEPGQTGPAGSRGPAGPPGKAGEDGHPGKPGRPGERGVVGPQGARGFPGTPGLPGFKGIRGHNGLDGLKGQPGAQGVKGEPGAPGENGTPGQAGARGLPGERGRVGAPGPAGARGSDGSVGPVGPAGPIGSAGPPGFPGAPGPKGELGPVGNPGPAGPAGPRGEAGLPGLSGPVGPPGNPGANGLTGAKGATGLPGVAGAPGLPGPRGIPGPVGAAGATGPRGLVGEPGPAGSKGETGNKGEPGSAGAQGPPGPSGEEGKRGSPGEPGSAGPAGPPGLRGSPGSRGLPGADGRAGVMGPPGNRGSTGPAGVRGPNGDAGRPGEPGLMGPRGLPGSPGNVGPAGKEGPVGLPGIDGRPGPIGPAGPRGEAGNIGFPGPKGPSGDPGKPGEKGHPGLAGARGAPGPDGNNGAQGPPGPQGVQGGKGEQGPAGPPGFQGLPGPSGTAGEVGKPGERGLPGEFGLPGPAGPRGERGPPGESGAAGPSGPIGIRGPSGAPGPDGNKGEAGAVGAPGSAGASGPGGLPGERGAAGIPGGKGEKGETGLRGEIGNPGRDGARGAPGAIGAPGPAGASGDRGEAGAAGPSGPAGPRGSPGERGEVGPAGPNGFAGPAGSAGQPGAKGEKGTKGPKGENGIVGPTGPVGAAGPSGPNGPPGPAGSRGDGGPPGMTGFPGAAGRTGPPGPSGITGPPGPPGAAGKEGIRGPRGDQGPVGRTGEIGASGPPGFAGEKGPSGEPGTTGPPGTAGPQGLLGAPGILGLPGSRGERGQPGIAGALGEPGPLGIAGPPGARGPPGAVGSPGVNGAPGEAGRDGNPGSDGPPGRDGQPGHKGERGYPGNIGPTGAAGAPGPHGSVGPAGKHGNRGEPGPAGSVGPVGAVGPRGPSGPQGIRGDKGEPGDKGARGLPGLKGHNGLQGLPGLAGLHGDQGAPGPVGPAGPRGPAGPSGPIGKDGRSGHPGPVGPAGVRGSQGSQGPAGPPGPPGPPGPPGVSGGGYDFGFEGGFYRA
Experiment: dried collagen assay; note: test concentration or dose not given here
Bridge positions count the residues as written; N and C are the ends. Square brackets hold non-standard residues; d marks the D form. Ends that are not written are not given here.
readout-kind: % bound (%)

# annotated cases, reported % bound shown
{"columns": ["binder", "measurement"],
 "data": [
  ["QWTCSGD[dE]YTWHCNYE (disulfide 4-13 (inferred); not fully specified (N-terminus); printed as QWTCSGDeYTWHCNYE, cyclic, disulfide) [SEQ ID NO 170]", 35],
  ["DWTCS[dY]DEYTWHCNYE (disulfide 4-13 (inferred), cyclic, disulfide) [SEQ ID NO 182]", 86],
  ["GQWTCSGDEYTWHCNYA (disulfide 5-14 (inferred); not fully specified (C-terminus), cyclic, disulfide) [SEQ ID NO 151]", 81]
]}

I: PWTCSGDEYAWHCNY[dE] (disulfide 4-13 (inferred), cyclic, disulfide) [SEQ ID NO 121]
II: YHACYQAGC[dW]IW (disulfide 4-9 (inferred); not fully specified (C-terminus); printed as YHACYQAGCwIW, cyclic, disulfide) [SEQ ID NO 160]
III: DWTCSGDPYTWHCNYE (disulfide 4-13 (inferred), cyclic, disulfide) [SEQ ID NO 115]
## Input # rank_down: sort by % bound, max first As an answer, provide the labels arranged in the order called for.
## Output I, III, II
(I: 72%, III: 23%, II: 12%)
